# Tested on: DeltatarO mutant
# Measurement description: S. aureus survival, RN4220 and DeltatarO strains – OD600, teichoic acid synthesis inhibitors, primary screen (AID 463173)
# Condition context: S. aureus RN4220 wild type/DeltatarO growth, OD600, 18 h, active compounds read low, screened at 18.75 µg/mL (by protocol)
The whole screen tested about 52,000 compounds, of which about 4,300 (8.3%) were called active. The list comes from a sample in which actives are over-represented; it also holds close analogues and randomly drawn compounds.
Reported property: survival (%)
State just the number; it will be interpreted in %.

> print(dat)
                                   molecule  unit.annotation  result.number
1  Cc1cccc(OCCCn2c(CCNC(=O)C3CCCCC3)nc3ccccc32)c1                %             37
2  COc1ccc(-c2nn3c(-c4ccccc4C)nnc3c3ccccc23)cc1                %              2
3  CCCC(O)c1nc2ccccc2n1CCCOc1ccc(Cl)cc1 (stereo not drawn)                %             65
4   CCOC(=O)c1nc(Nc2ccc(Cl)cc2)c2c(C)noc2n1                %             68
5  COc1cccc(CNC(=O)c2ccc(-c3nc(CS(=O)c4ccccc4)c(C)o3)cc2)c1 (stereo not drawn)                %             92
6  O=C(NCC(c1ccco1)S(=O)(=O)c1cccs1)c1ccc(Cl)cc1 (stereo not drawn)                %            102
7  CC(C)(C)NC(=O)c1oc2ccccc2c1NC(=O)c1ccc(F)cc1                %             71
8                 Nc1ccc2c(c1)OC1(CCCCC1)O2                %             55

Documented survival of `CCOc1ccccc1NC(=O)c1ccc2c(c1)CCN2S(C)(=O)=O` : 75

Documented survival of `Cc1ccc(-c2nnc(Nc3ccc(S(N)(=O)=O)cc3)c3ccccc23)cc1S(=O)(=O)N1CCCCC1` : 103

Documented survival of `COc1ccc(Br)c(C(=O)Nc2cc3c(cc2N2CCOCC2)n(C)c(=O)n3C)c1` : 82

Documented survival of `Cc1ccccc1NC(=O)CSCn1nnc2c(=O)[nH]c(Cc3ccc(F)cc3)nc21` : 55

Documented survival of Cc1cccc(CC(=O)NC2CC(=O)N(c3ccc4c(c3)OCCO4)C2)c1 (stereo not drawn) : 72

Documented survival of CCOC(=O)c1ccc(NC(=O)C2Cc3ccccc3CN2S(=O)(=O)c2ccc(Cl)cc2)cc1 (stereo not drawn) : 53

Documented survival of `Cc1ccc(NC(=O)CSc2nncn3c2cc2sccc23)cc1F` : 61

Documented survival of `Clc1ccccc1CNc1ncnc2c1nc1n2CCCC1` : 97

Documented survival of COc1ccc(S(=O)(=O)NC2(C(F)(F)F)NC(=O)N(CCc3ccccc3)C2=O)cc1 (stereo not drawn) : 99

Documented survival of `O=c1c2ccccc2nc(-c2ccccc2)n1CCCn1ccnc1` : 107

Documented survival of `Cc1ccc2c(c1)c1c(c(=O)n(Cc3ccccc3)c(=O)n1CC(=O)Nc1ccccc1C)n2C` : 99

Documented survival of `CSc1ccc(CNC(=O)c2cc3cc(S(=O)(=O)N4CCCCC4)ccc3n2C)cc1` : 95

Documented survival of COc1ccc(C(=O)N(Cc2cc(OC)c(OC)c(OC)c2)CC2CCCO2)cc1 (stereo not drawn) : 48

Documented survival of `CSc1nn(Cc2ccc(F)cc2)c(N(C(C)=O)C(C)=O)c1S(=O)(=O)c1ccccc1` : 74

Documented survival of `COc1cccc(NC(=O)c2oc3ccccc3c2NC(=O)C2CCCCC2)c1` : 66

Documented survival of CCOC(=O)c1c(S(=O)(=O)N2CCCC(C(=O)Nc3cc(C)ccc3OC)C2)c(C)n(C)c1C (stereo not drawn) : 75

Documented survival of `CCc1nc2ccccc2n1CCO` : 77

Documented survival of `Cc1ccc(-c2nn3c(-c4ccccc4)nnc3c3ccccc23)cc1` : 86

Documented survival of `CCOc1ccc(NC(=O)c2oc3ccccc3c2NC(=O)C2CCCCC2)cc1` : 103

* * *

# Tested on: DeltatarO mutant
# Measurement description: S. aureus survival, RN4220 and DeltatarO strains – OD600, teichoic acid synthesis inhibitors, primary screen (AID 463173)
# Condition context: S. aureus RN4220 wild type/DeltatarO growth, OD600, 18 h, active compounds read low, screened at 18.75 µg/mL (by protocol)
About 4,300 (8.3%) of roughly 52,000 compounds were called active. For the sample, actives were picked, then their nearest neighbours and some compounds at random.
Reported property: survival (%)
State just the number; it will be interpreted in %.

> print(dat)
                                   compound  result.number
1           N#Cc1c(/N=C/N2CCCCC2)sc2c1CCCC2             80
2  COc1ccc(-c2noc(CSc3nc4ccc(C)cc4[nH]3)n2)cc1             39
3  CCC1CN(S(=O)(=O)c2cc(-c3cc(C)no3)ccc2OC)c2cc(C)ccc2O1 (stereo unspecified)            109
4  COC(=O)c1ccc(NC(=O)C2(S(=O)(=O)c3ccc(C)cc3)CC2)cc1            134
5  CC(C)C(=O)Nc1ccc(N2CCN(C(=O)c3ccccc3)CC2)cc1            101
6  Cc1ccc2nc(SCc3nc(-c4ccccc4C)no3)[nH]c2c1             25
7  O=C(Nc1ccccc1C(F)(F)F)C1(S(=O)(=O)c2ccc(Cl)cc2)CC1             84
8  O=C(Cn1c(SCC(=O)Nc2ccc(F)cc2)nc2ccccc21)NCc1ccc(F)cc1             91

Entry `CCOC(=O)c1sc2ccccc2c1S(=O)(=O)Nc1ccc(N(C)C)cc1` ; assay system DeltatarO mutant; survival recorded at 126

Entry CCC1CN(S(=O)(=O)c2cc(-c3cc(C)no3)ccc2C)c2cc(C)ccc2O1 (stereo unspecified) ; assay system DeltatarO mutant; survival recorded at 52

Entry `COc1ccc(-c2onc(C)c2C)cc1S(=O)(=O)N1CCc2ccccc21` ; assay system DeltatarO mutant; survival recorded at 6

Entry `COC(=O)c1ccc(Cn2c(SCC(=O)N(C)c3ccccc3)nc3ccccc32)cc1` ; assay system DeltatarO mutant; survival recorded at 60

Entry `COc1ccc(CNC(=O)Cn2c(SCC(=O)Nc3ccc(OC)cc3)nc3ccccc32)cc1` ; assay system DeltatarO mutant; survival recorded at 89

Entry `CC(=O)N1CCCc2cc(S(=O)(=O)N3CCC(C(=O)NCCC(C)C)CC3)ccc21` ; assay system DeltatarO mutant; survival recorded at 91

Entry `COc1ccc(-c2cc(C)no2)cc1S(=O)(=O)N1CCOc2ccccc21` ; assay system DeltatarO mutant; survival recorded at 73

Entry `Cc1cccc(-c2noc(CSc3nc(-c4ccc(F)cc4)cc(=O)[nH]3)n2)c1` ; assay system DeltatarO mutant; survival recorded at 83

Entry CCC1CN(S(=O)(=O)c2cc(-c3cc(C)no3)ccc2OC)c2cc(Cl)ccc2O1 (stereo unspecified) ; assay system DeltatarO mutant; survival recorded at 62

Entry `CCOC(=O)c1ccc(NC(=O)C2(S(=O)(=O)c3ccc(Cl)cc3)CC2)cc1` ; assay system DeltatarO mutant; survival recorded at 75

Entry `Cc1ccc(NC(=O)c2ccco2)cc1NC(=O)CSc1ncnc2sc3c(c12)CCC3` ; assay system DeltatarO mutant; survival recorded at 54

Entry `Cc1ccc(S(=O)(=O)C2(C(=O)Nc3ccc(C(C)C)cc3)CC2)cc1` ; assay system DeltatarO mutant; survival recorded at 19

Entry `Cc1ccc(S(=O)(=O)C2(C(=O)Nc3ccc(Cl)c(C(F)(F)F)c3)CC2)cc1` ; assay system DeltatarO mutant; survival recorded at 26

Entry `COc1cccc(CNC(=O)Cn2c(SCC(=O)Nc3ccc(F)cc3)nc3ccccc32)c1` ; assay system DeltatarO mutant; survival recorded at 8

Entry `CCc1ccccc1NC(=O)C1(S(=O)(=O)c2ccc(Cl)cc2)CC1` ; assay system DeltatarO mutant; survival recorded at 90

Entry `COc1cc(NC(=O)CCn2cnc3ccccc3c2=O)cc(OC)c1` ; assay system DeltatarO mutant; survival recorded at 122

Entry CCOc1ccc(OCC)c(NC(=O)C2CCCN(S(=O)(=O)c3ccc(C)cc3)C2)c1 (stereo unspecified) ; assay system DeltatarO mutant; survival recorded at 60

Entry `Cc1ccc2nc(SCc3nc(-c4ccc(Cl)cc4)no3)[nH]c2c1` ; assay system DeltatarO mutant; survival recorded at 28

Entry CC(NC(=O)Nc1ccccc1C(F)(F)F)c1c(-n2cccc2)sc2c1CCCC2 (stereo unspecified) ; assay system DeltatarO mutant; survival recorded at 104

Entry CCC1CN(S(=O)(=O)c2cc(-c3cc(C)no3)ccc2C)c2cc(Cl)ccc2O1 (stereo unspecified) ; assay system DeltatarO mutant; survival recorded at 75

Entry COc1ccc(/C=C/C(=O)Nc2nc3n(n2)C(c2ccc(F)cc2)C=C(c2ccccc2)N3)cc1 (stereo unspecified) ; assay system DeltatarO mutant; survival recorded at 42

Entry `COc1cccc(CNC(=O)Cn2c(SCC(=O)Nc3ccc(C)c(C)c3)nc3ccccc32)c1` ; assay system DeltatarO mutant; survival recorded at 87

Entry `Nc1nnc(CCC(CCc2nnc(N)s2)(CCc2nnc(N)s2)C(=O)c2ccccc2)s1` ; assay system DeltatarO mutant; survival recorded at 92
